Readings of TGI for the listed compounds
- Tested on: 786-0 renal
- ASSAY_NOTES: NCI tumour cell line growth inhibition, 48 h

# annotated cases, reported TGI shown
INSERT INTO assay_data (compound, assay_metric, value_reported) VALUES
  ('Cc1[nH]c(=O)nc2nc3cc(Cl)cc(Cl)c3c(NC(C)(CO)CO)c12', 'TGI', '91.6 µM'),
  ('CC(=O)c1nc2ccccc2n1C(C)C(=O)c1ccccc1 (centres undefined)', 'TGI', '> 100 µM'),
  ('Cc1onc(-c2ccccc2)c1C(=O)N/N=C/c1cc(Cl)cc(Cl)c1O', 'TGI', '50.7 µM');

Report value only: TGI, 786-0 renal, O=C(NCCCCN1CCOCC1)c1cc2ccccc2o1 > 100 µM

Report value only: TGI, 786-0 renal, CC(=O)O[C@@H]1C2CCC3C(CC[C@@]4(C)C3CC[C@@H]4C(C)N(C)C)[C@@]2(C)CC[C@@H]1NC(=O)C=C(C)C (some centres undefined) 6.73 µM

Report value only: TGI, 786-0 renal, Fc1ccc(-c2c(-c3ccncc3)nc3n2CCS3)cc1 > 25 µM
